Tested on: XIP peptide (Xip251-270) binding
Assay: small-molecule binders of XIP peptide, primary screen, biochemical, small-molecule microarray, fluorescence 635/667 nm, 0.1 µg/mL protein (AID 1182)
Settings: fluorescent protein binding, 635 nm, higher = more signal, called active from +8 up or from −8 down
Active and inactive are the calls of the source.
readout-kind: composite z-score

CC(C)C(CO)N1C(=O)[C@@H]2[C@H]3C(=O)OCC=C[C@H]3OC23C=CCN(Cc2ccccc2)C(=O)[C@@H]13 (some centres undefined) ... -0.433 (inactive)
CCOC(=O)C[C@H]1[C@H](OC(=O)c2ccc(C(=O)c3ccccc3)cc2)[C@@H](NC(=O)Cc2ccc(OC)cc2)c2cc(OCCCO)ccc2N1C(=O)Cc1ccc(OC)cc1 ... 0.608 (inactive)
C=CCC(OC(C)=O)[C@@H]1[C@@H](N(Cc2ccc(-c3ccccc3)cc2)C(=O)c2ccc(-c3ccccc3)cc2)c2cc(OCCCO)ccc2N1C(=O)c1ccc(-c2ccccc2)cc1 (some centres undefined) ... -0.959 (inactive)

Kindly review the next molecule as well.
For `COCCOC(=O)N1C(=O)[C@@]2(c3cc(C#CCNC(N)=O)ccc31)[C@H](C(=O)NC[C@H](O)c1ccccc1)[C@H]1C(=O)O[C@H](c3ccccc3)[C@H](c3ccccc3)N1[C@@H]2c1ccc(O)cc1` the molecule record lists composite z-score as 1.29 (inactive)

----------
Experiment: E. coli DRC41 culture turbidity changes, primary screen, E. coli filamentation inducer project, strain DRC41, OD650, 48 h (AID 1152);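 also: E. coli MC1000 strain DRC41 lacking acrAB efflux pump and sulA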
Settings: E. coli DRC41 (acrAB sulA), higher = more signal, called active from +8 up or from −8 down
A collection of compounds and their measured z-score
Lab note: jot the number down without any unit.

Example results:
O=C1c2ccccc2[C@](Cc2ccccc2I)(C(=O)O)[C@H](c2ccc(CO)cc2)N1Cc1ccccc1Cl ... 1.76
CC(C)[C@@H](C(=O)O)n1cc(-c2ccccn2)nn1 ... 2.01
CO[C@H]1O[C@H](CO)[C@@H](OC(=O)Nc2ccccc2)[C@H](OC(=O)Nc2ccc3c(c2)OCO3)[C@H]1OC(=O)Nc1ccc2c(c1)OCO2 ... 2.12
COCCOC(=O)N1C(=O)[C@@]2(c3cc(C#CC4(O)CCCCCC4)ccc31)[C@H](c1ccc(O)cc1)N1[C@H](c3ccccc3)[C@H](c3ccccc3)OC(=O)[C@H]1[C@@H]2C(N)=O ... 1.91
CC(C)(C)OC(=O)CC[C@]1(C(=O)NCc2ccccc2)N=C(c2ccc(OCCCO)cc2)O[C@H]1c1ccccc1N=[N+]=[N-] ... 1.78
COCCCNC(=O)[C@@]1(Cc2ccccc2)N=C(c2ccc(OCCCO)cc2)O[C@H]1c1ccccc1N=[N+]=[N-] ... 1.78
COc1ccc(CCNC(=O)[C@@]2(Sc3ccc(C)cc3)CC(=O)N(Cc3ccccc3)[C@@H]2c2ccc(CO)cc2I)cc1 ... 1.15
CO[C@H]1O[C@H](CO)[C@@H](OC(=O)Nc2ccccc2)[C@H](OC(=O)Nc2ccccc2-c2ccccc2)[C@H]1OC(=O)Nc1ccccc1-c1ccccc1 ... 0.663
CCCCCN1CC=CC23O[C@@H]4/C=C\CCC(C)OC(=O)C4[C@H]2C(=O)N(CCCO)[C@@H]3C1=O (stereo not given in full) ... 1.5

Let's switch to this compound now.
// CC(C)CCC[C@@H](C)[C@H]1CC[C@@]2(C)C3=C(CC[C@]12C)[C@@]1(C)CC[C@H](OC(=O)CCl)C(C)(C)C1CC3 (stereo not given in full) : z-score value = 3.33

meta.source: PubChem BioAssay
